biological target: Glc(a1-6)Glc(a1-6)Glc(a1-6)Glc; assay: glycan array binding signal (z-score within array); higher = stronger binding; conditions: glycan notation: IUPAC condensed, linker removed
The sample as a whole holds a higher share of the strongest signals than the screen did.
parameter: glycan array binding signal (z-score)
Give bare numbers.

- binder: "GNL (Galanthus nivalis) (protein) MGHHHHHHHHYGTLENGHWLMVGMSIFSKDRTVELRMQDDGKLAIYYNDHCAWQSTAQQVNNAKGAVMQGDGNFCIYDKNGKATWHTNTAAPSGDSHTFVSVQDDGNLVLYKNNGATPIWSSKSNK"
  parameter: "glycan array binding signal (z-score)"
  experimental result: -0.121

Proceeding to the next binder to report its glycan array binding signal (z-score).
Task: Could you share which glycan array binding signal (z-score) value was measured for MGL2 (Mus musculus), Q8JZN1 (protein) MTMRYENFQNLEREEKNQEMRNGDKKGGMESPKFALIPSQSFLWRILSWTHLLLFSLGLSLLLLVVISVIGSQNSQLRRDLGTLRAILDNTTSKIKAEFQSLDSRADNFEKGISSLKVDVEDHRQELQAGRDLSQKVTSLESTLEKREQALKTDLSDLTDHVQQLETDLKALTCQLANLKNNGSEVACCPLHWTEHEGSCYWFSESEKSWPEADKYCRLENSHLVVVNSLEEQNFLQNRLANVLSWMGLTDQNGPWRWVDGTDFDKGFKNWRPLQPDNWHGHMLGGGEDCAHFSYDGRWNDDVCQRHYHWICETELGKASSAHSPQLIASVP ?
Result: 0.014
